As shown below, each of these compounds has a reported caspase-3 activation value.
Test: Cellular Toxicity (caspase-3) Jurkat (AID 655);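 note: cells exposed to compound for 16 h at 37 °C before reading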
Details: Jurkat caspase-3 activation, luminescence; at 92.2 µM (top of the series), DMSO = 0%, tamoxifen = 100%
Inconclusive results are not listed.
Give the number; % is assumed, so skip it.

Smiles entry	Unit spec	Reading
Clc1ccc(C(c2ccc(Cl)cc2)C(Cl)Cl)cc1	%	22.6

# input Any idea what caspase-3 activation was measured for CC(=O)[O-].CC(=O)[O-].O.O.[Cd+2] ?
# output 4.84

# input Any idea what caspase-3 activation was measured for c1ccc2cc3c(cc2c1)-c1cccc2cccc-3c12 ?
# output -1.28

# input Any idea what caspase-3 activation was measured for O=C(CCl)c1ccccc1 ?
# output -8.71

# input Any idea what caspase-3 activation was measured for Nc1ccccc1C(=O)OCCc1ccccc1 ?
# output -5.89
